B1: CPEB3 Ribozyme (parent)
chain: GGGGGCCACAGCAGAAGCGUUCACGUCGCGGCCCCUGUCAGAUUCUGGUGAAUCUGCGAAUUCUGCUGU

# Variants of: B1
# Assay Protocol: self-cleavage, relative activity (ratio to wild type); higher = more cleavage; co-transcriptional
# cutoff 0.3 applies to self-cleavage; >= gives y, < gives n

>>> df
    sequence_variant  assigned_category
 0         G48C A52C                  y
 1         G14C A42U                  n
 2          C6G U44C                  n
 3         G14C A16C                  n
 4          G3U G37A                  n
 5          G4A G28U                  n
 6         A23C A51U                  y
 7          G1C G19A                  n
 8         A52C G65C                  y
 9         G11C G50U                  y
10         U43A C63G                  y
11         C33G G48C                  y
12          A8C G56A                  y
13         G17U U21A                  y
14         C29U U44C                  y
15          G1U U20A                  n
16          G1C U61C                  n
17         U44A U67A                  y
18         C18G A51C                  n
19         A16G G41C                  y
20         U49C C54U                  y
21         A42C U49G                  y
22         G41U U61C                  y
23          G2U U36C                  n
24         C32U G68C                  y
25          G5A C29A                  n
26          G1U G41A                  n
27          C6A G58A                  y
28          G4U G47A                  y
29          G1C G41A                  n
30         A13U A60U                  y
31         U38C U44C                  y
32         G41A U69A                  y
33         C35U G47U                  y
34          G5A A60U                  n
35         A13C G14C                  n
36         C35G C66U                  y
37         C18U C54G                  y
38         U21G U43A                  n
39         G14U U64G                  y
40         G25U C39G                  n
41         A52G U69A                  y
42         G11U G47C                  y
43         A16C C63A                  n
44         C33G U46C                  y
45         U49A U55A                  y
46         U21A U26G                  y
47         U49C C57G                  n
48         U21C U53A                  y
49          G5C C45U                  n
50         U21C C57U                  y
51         C35G C45U                  y
52          G1U C34G                  n
53         U20G G47U                  n
54         G47C G65U                  y
55          G4C G11A                  y
56         U46C G65C                  y
57         G50A U64A                  y
58         A59U U67A                  y
59         A42U G47U                  y
60         C35G G37A                  n
61          G5U A13U                  n
62         A15C C29G                  n
63          G1A C34U                  n
